Below, each entry is listed alongside its reported IC50 (nM), cytotoxicity on RT4 cells (Cell Titer-Glo).
Molecular target: human SLITRK6 on cells (human, UniProt Q9H5Y7 27-841)
Assay: cell-based or functional assay
Property: IC50 (nM), cytotoxicity on RT4 cells (Cell Titer-Glo)

Binder: phA290-LD038 (8) (antibody, V domains shown, drug-linker LD038 on cysteines freed by TCEP reduction, DAR 8.0; positions not given, also called phA290 ADC) VH: QVQLVQSGAEVKKPGASVKVSCKASGYTFTSYYMHWVRQAPGQGLEWMGIINPSGGSTSYAQKFQGRVTMTRDTSTSTVYMELSSLRSEDTAVYYCARGFTRYFDYWGQGTLVTVSA VL: EIVMTQSPGTLSLSPGERATLSCRASQSVSKYLAWYQQRPGQAPRLLIYDASNRATGIPARFSGSGSGTDFTLTVSSLEPEDFAVYYCQQRYNWPLTFGGGTTVEIK
Obs value: 5.9
--
Binder: Sirtratumab-LD038 (8) (antibody, V domains shown, drug-linker LD038 on cysteines freed by TCEP reduction, DAR 8.0; positions not given, also called Sirtratumab ADC) VH: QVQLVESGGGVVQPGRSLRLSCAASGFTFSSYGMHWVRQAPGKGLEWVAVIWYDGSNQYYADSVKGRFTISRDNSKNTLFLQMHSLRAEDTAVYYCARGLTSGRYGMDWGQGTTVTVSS VL: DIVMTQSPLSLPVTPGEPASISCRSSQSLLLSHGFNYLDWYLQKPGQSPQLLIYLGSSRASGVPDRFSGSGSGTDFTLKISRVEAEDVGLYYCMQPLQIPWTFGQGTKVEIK
Obs value: 9.25
--
Binder: phA108-LD038 (8) (antibody, V domains shown, drug-linker LD038 on cysteines freed by TCEP reduction, DAR 8.0; positions not given, also called phA108 ADC) VH: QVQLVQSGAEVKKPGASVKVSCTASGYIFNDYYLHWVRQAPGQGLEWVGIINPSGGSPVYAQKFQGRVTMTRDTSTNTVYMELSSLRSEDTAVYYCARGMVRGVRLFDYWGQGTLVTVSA VL: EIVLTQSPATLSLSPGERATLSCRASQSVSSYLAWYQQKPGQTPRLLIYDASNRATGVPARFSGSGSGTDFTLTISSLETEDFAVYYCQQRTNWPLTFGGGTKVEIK
Obs value: 7.29
